# MEASURED ON: T1, His6-Hs.USP18 (16-372) (human, UniProt Q9UMW8 16-372)
# T1 chain: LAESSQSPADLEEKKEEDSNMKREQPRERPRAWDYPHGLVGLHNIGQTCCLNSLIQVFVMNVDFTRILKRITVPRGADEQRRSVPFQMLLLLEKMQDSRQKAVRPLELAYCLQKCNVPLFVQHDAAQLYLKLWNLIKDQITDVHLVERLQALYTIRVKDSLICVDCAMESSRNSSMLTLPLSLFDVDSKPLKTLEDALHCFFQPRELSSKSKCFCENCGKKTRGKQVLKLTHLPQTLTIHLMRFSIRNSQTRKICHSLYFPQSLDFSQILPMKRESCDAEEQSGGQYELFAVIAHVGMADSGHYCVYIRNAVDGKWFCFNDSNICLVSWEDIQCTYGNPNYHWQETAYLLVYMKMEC
# ASSAY NOTES: SPR
MEASUREMENT NAME: pKd
Scale note: pKd = -log10(concentration in M).

As a guide, the following entries are already answered.
>>> measured_number("Ac-mISG15CTD[R153Phe(guan)]-OH (domain or fragment, N-terminal acetyl; Phe(guan) (guanidino-phenylalanine) at 153) LSILVRNERGHSNIYEVFLTQTVDTLKKKVSQREQVHEDQFWLSFEGRPMEDKELLGEYGLKPQSTVIKHLRLFG")
5.72
>>> measured_number("Ac-mISG15CTD-OH (wild type) (domain or fragment, N-terminal acetyl) LSILVRNERGHSNIYEVFLTQTVDTLKKKVSQREQVHEDQFWLSFEGRPMEDKELLGEYGLKPQSTVIKHLRLRG")
5.37

Now turn to the next binder.
Prompt: I would be grateful if you could share the reported pKd for Ac-mISG15CTD[R153Agb]-OH (domain or fragment, N-terminal acetyl; Agb (2-amino-4-guanidino-butyric acid) at 153) LSILVRNERGHSNIYEVFLTQTVDTLKKKVSQREQVHEDQFWLSFEGRPMEDKELLGEYGLKPQSTVIKHLRLXG .
Completion: 5.92

The measured values listed here are drawn from paper PMC11754618.
